# experimental-details: soluble on expression in E. coli; label from the status in PepcDB or PDB records

| sequence-input | soluble on expression in E. coli |
| --- | --- |
| MEKYSQVIFDKNTVEFVTVAAEFCGFLERARDMKRYDFVDTALKILPLLYLKATLLPPCEPIGEDEPETFVTEEDYELIRRAIAGVLGAKDDYLEVFLPDMVYSDTPIKKCISEDLADIYQDLKDFISVFQLGLNETMNDSLVVCKEHFREFWGQRLVNTMRALHDVKYSPADDGEEEEMEDENSLLLEHHHHHH | soluble |
| GPLGSMATVPVYCVCRLPYDVTRFMIECDACKDWFHGSCVGVEEEEAPDIDIYHCPNCEKTHGKSTLKKKRTWHK | soluble |
| MIVSFMVAMDENRVIGKDNNLPWRLPSELQYVKKTTMGHPLIMGRKNYEAIGRPLPGRRNIIVTRNEGYHVEGCEVAHSVEEVFELCKNEEEIFIFGGAQIYDLFLPYVDKLYITKIHHAFEGDTFFPEMDMTNWKEVFVEKGLTDEKNPYTYYYHVYEKQQLEHHHHHHHH | soluble |

###

# experimental-details: soluble on expression in E. coli; label from the status in PepcDB or PDB records
measured-property: soluble on expression in E. coli

| sequence-input | soluble on expression in E. coli |
| --- | --- |
| MSLKQPTSTTVTRTDYLKHKVKVPKHPKRIVASYLEDDLVALGIKPVVQWSVKNGSGTQAYLKEQLKGVPLIDYSLPYEAVTKAKPDLILIGTSSAVANGKYAQYNKIAPTYVVKNGTTVTWRQTFLDVAKVVNRQAKAKKVLAKYDKQVQTTRQALKKSGQHKVAVLWVTNNTAYMVNDNSASGALLYQDLQLGEPSLVKQVSKSATADWSAVSLEKLAKLDADDIFLVNSQKSASLFKDPLWKNIKAVKNNHLYQYGDSSSWQYSGPIAYSQMIDMVKTDLLKEGHHHHHH | soluble |
| MQSETTSKHTDILTSLQLSLTPRRDPTFEETTTDEQTSVQIALSPCLNATIASSKYSLDDLDVSAQYLWDTAADNLIYTTSNAREIPIRTRPTTFLTKRMTEGLQVDVTGAPTSAWIAHPLTFEVIYHHLANILCATPVFYVPHPQLLIAVASHIVSPQLESWLSTFSTPLVKDALIYHEGFPAHIKSSAWQQPLHHMSSDQLSA | not soluble |
| MKVDKETIEYVANLARLRLSEKEKEKLALDLESIISYVDKLNELDTSKIIPTDHVIPIKNVFRDDEVRDSYPKDKMLMNAPEKEDGCFKVPKVVE | soluble |
| MGSDKIHHHHHHGQYIKKETVNSQVYAVIYAEGLAGSAQWVSGFKMMKNDATIRHQVSRGNGGNPIVNDRIPMRFIIAPTDVANVTWMQAEGAGDGNGNLNADFRSTAATGCRSYKIAGDPNRKWRVPTQRELQLMWLFREPVGVIYPAAQMENVSSKIYWAATEEDAANAWYFDFKQGVPQCSWQLKTTSSNVRCVSDY | not soluble |
| MSLNIAMTGATGYIGKHLSNYLTEKGGHRIIPLGRAMFREGMSGLLVQTLTHCDVIINLAGAPINQRWTPEHKQELFNSRITVTHRIIRALNAVKTKPKLMISASAVGYYPSLVESDEYTQTRGDGFLSDLCYAWEKEAKRCPQPTRLVITRFGVVLSPDGGAMQQMLRPLRATKVAAVIGPGTQPFPWIDIRDLCCAMAFFIENEELRGVFNLVAPQAVSQSTFTRAMGKAYHAWTTLIVPQAVFRLFYGEAASFLTAGQRVRPTRLLEAGFHFSVPTIEKLFEGEGHHHHHH | soluble |

Could you tell me soluble on expression in E. coli for each of these sequences? They are listed below.
1. MGSDKIHHHHHHDDTLTSGTITIAVDETFRPIIEEELQVFYALTPDATVHPIYCSEVEAMKLLLADSVRLAITTRQLTRQETAYLNDKKFFPVSVKMATDGLALIVNKQNTDSLITVDQFKEILTGKVTDWKQLNPASRLGELQLVFDNPNSSTVHYVLDSICGGMPLSKDLKAQKTNPEVISYVAKNPAALGVIGVNWIGNPADSTRLSFNDVIRIMAVSRADSATVGNSFKPYQAYLALNQYPLTRNVYILLNDPKSGLPSGLTSFLTDFRGQRIILKSGLVPATAAVRIVDVKEE
2. MEKNWYVVHTYSGYENKVKANLEKRVESMGMQDKIFRVVVPEETETDVKNGKRKTTKKKVFPGYVLVEMVMTDDSWYVVRNTPGVTGFVGSSGAGSKPTPLMEEEVKMILKRMGMPLAEVDVDYEVNETVRIKEGPFANFTGKIEAIDPDKHKVKLLVDMFGRETRVELEFSQIEKI

Key:
1. not soluble
2. not soluble

###

# experimental-details: soluble on expression in E. coli; label from the status in PepcDB or PDB records
measured-property: soluble on expression in E. coli

| sequence-input | measured-property | meas-value |
| --- | --- | --- |
| MIIMGLFDEVVGAFLKGDAGKYQAILSWVEEQGGIQVLLEKLQSGGLGAILSTWLSNQQGNQSVSGEQLESALGTNAVSDLGQKLGVDTSTASSLLAEQLPKIIDALSPQGEVSPQANNDLLSAGMELLKGKLFR | soluble on expression in E. coli | not soluble |
| MGSDKIHHHHHHVEDLKNLTNQAVEKQPEIVKRFNEMIDSQHLSHAYLLTGAGGIGKKDVAQWVAMRLFCIDLQGSMPCGECEECTRIMSGQHPDVVEIAPDGQSIKVEQVRFLKSEFSKSGVEGARKVFIIEQANKMTTSAANSLLKFIEEPSGEVTAFLLAENRSLMLPTIVSRTEIIELKPLPKDRLIKELTEQNIAETDARILTRLTNDMSEIQTLVDNNWILDAHKALEKWFITATTGDITAFVDVQTRVMALAKDRFYQEKILDLMMLYAMDLLELKFDQETITYEANRRQLQELADQTNVRQLLAVADVLLPLKHQLSQNLNFQSVVEKATIKICNIFKMRGR | soluble on expression in E. coli | not soluble |

###

# experimental-details: soluble on expression in E. coli; label from the status in PepcDB or PDB records

| sequence-input | soluble on expression in E. coli |
| --- | --- |
| MAHILLIPANSPFVVTGALSAKVSTVEEFAQKHRAFAIFNAGFFDPANQKSTSYVVVTGQMVADPKDNERLVNNPQLKPYLNLIFNRSEFRRYLCGQTTRYDITLHNESPPANCRLVDAIGAGPRLLPKLTSVPEGFVDNAKGRDALLSKQLNARTAVGITSEGSIILVMVAQKPSKPKNSGISLVQLADLMKKLGASAAMNLDGGSSSSLYYNGKAFYGKFDLQGNPIKRKVKSVLLVQENVRNLEHHHHHH | not soluble |
| MGHHHHHHSHMEEERRDDYKFLRIQDAFKALHLHVNLIGVIVELGFSNGSDCSCTLKIVDPWYSGSGLPVKFVARTIRDLPRVESIGDIILLSRVKIVLINRKITALCNETTSSSFALFNGKHSVDSIPYQSSPKFLMREQDKNFLSNLREWMITYKFEDGS | not soluble |

###

# experimental-details: soluble on expression in E. coli; label from the status in PepcDB or PDB records
measured-property: soluble on expression in E. coli

// solved cases for soluble on expression in E. coli follow
| sequence-input | soluble on expression in E. coli |
| --- | --- |
| ALSGECADEIFGGYPWFMRKEMIYANTFPWSRFVNERISLLSDDLKSINLQEYVDARYKENLNNVPVSDEDSPYAKRMRELFYLNIKWFMITLLTRKDRMSMANSLEVRVPFADYRLVEYAFNIPPEIKFLNGREKGILRKAFEGVLPQDVIERKKSPYPKTFDPRYTALVQKWLKKVVEDKTSPILDIIDLKTVNELIETGGSSYKTPWFGQLMKGPQLIAYLLQVNFWLKEY | not soluble |
| MGSDKIHHHHHHMIDLSLLPPPDVVESVDFEELYQETLGIFREFMKDQWTAALESDPVVKLMEVMAYREMLTRARVNAAAKASLLAFAKGNDLVNRAADYGVEKLVIRPADPDAVPPVEAVMEGDEALRYRTRLSLEALSVAGSSGAYEYHGLSASAELTNVSVDSPRFVEAELTPEVRAQLPAGAIVVVCDYDAGLANPLPGDVSLAILPSLSSTTPVAQLVAKVKAALSAEEVRPITDRPRVAAGVPTEFKVEAELQIEEGPDPDVVKATARAGLNAAIAEARRLQGQLPLSAIYAALHVTGIRSVTLKHPAAGVVCDKRHYPSCTSVTLTSKVVT | not soluble |
| MSLARVGVVCHVHPDADTIGAGLALALVLDGCGKRVEVSFAAPATLPESLRSLPGCHLLVRPEVMRRDVDLVVTVDIPSVDRLGALGDLTDSGRELLVIDHHASNDLFGTANFIDPSADSTTTMVAEILDAWGKPIDPRVAHCIYAGLATDTGSFRWASVRGYRLAARLVEIGVDNATVSRTLMDSHPFTWLPLLSRVLGSAQLVSEAVGGRGLVYVVVDNREWVAARSEEVESIVDIVRTTQQAEVAAVFKEVEPHRWSVSMRAKTVNLAAVASGFGGGGHRLAAGYTTTGSIDDAVASLRAALGEGHHHHHH | not soluble |
| MGHHHHHHSHGESEDVTQFLQSHKKTLTNEKLFLMDGKRTWFLEMESTPGEDAMNTVKMTTKDLKYDRSLIDKAGFERTDSNFERSHTVGKMLSNSIMCYRDIFYERESQLMQQTSLLSYEIAIATPTFSNYYPDWSAPINIVARPSTSKKIMTC | not soluble |
| SLNSVTRLDGANRYEVAVNVSKQGWTSASTVIVANGKAYADVLSATPFAYRNNAPVLLTEASKLPTATKNRISQLKPSKVIVIGGTVSVQNGVVSEIKKLGVSSVERIGGANRYEVAANIANKLPSNSKAVIANGTAYADSLAIGAYAARNGIPILLTSSNSIPTATKNAMKSKGTTSTIVVGGEVSISSSVYKQLASPTRIGGSNRYEVAANVVKKYYSSAKNAIISNGYAYADGLTGSVLAAKQNRPMMFTNASSLPTPTREVIGSKNMTTFTVLGGTVSLQSNVVSQLKN | not soluble |
| MSLSRSEEMHRLTENVYKTIMEQFNPSLRNFIAMGKNYEKALAGVTYAAKGYFDALVKMGELASESQGSKELGDVLFQMAEVHRQIQNQLEEMLKSFHNELLTQLEQKVELDSRYLSAALKKYQTEQRSKGDALDKCQAELKKLRKKSQGSKNPQKYSDKELQYIDAISNKQGELENYVSDGYKTALTEERRRFCFLVEKQCAVAKNSAAYHSKGKELLAQKLPLWQQACADPSKIPERAVQLMQQVASN | soluble |
| MAHHHHHHMVSANKSTMPLSQGCAAAAGIPLEYFETRDHINHLISLGMPRVTPHTVPPKERVATLPVPPQQDHTELMLTISSGGSPQKSYFSTTESHLLTCGTLTPKTARKRPEIDSFDMEGAFAALVKRLESRVDEEDNKDMAS | not soluble |
| MGSDKIHHHHHHMPHHQYVLTLSCPDRAGIVSAVSTFLFENGQNILDAQQYNDTESGHFFMRVVFNAAAKVIPLASLRTGFGVIAAKFTMGWHMRDRETRRKVMLLVSQSDHCLADILYRWRVGDLHMIPTAIVSNHPRETFSGFDFGDIPFYHFPVNKDTRRQQEAAITALIAQTHTDLVVLARYMQILSDEMSARLAGRCINIHHSFLPGFKGAKPYHQAFDRGVKLIGATAHYVTSALDEGPIIDQDVERISHRDTPADLVRKGRDIERRVLSRALHYHLDDRVILNGRKTVVFTD | not soluble |

Could you tell me soluble on expression in E. coli for each of these sequences? They are listed below.
1. MRGSHHHHHHTDPALRATIWVDADACPNVIKEILYRAAERMQMPLVLVANQSLRVPPSRFIRTLRVAAGFDVADNEIVRQCEAGDLVITADIPLAAEAIEKGAAALNPRGERYTPATIRERLTMRDFMDTLRASGIQTGGPDSLSQRDRQAFAAELEKWWLEVQRSRGGLCGR
2. YIKYFNDKTIDEELERDKRVTWIVEFFANWSNDCQSFAPIYADLSLKYNCTGLNFGKVDVGRYTDVSTRYKVSTSPLTKQLPTLILFQGGKEAMRRPQIDKKGRAVSWTFSEENVIREFNLNEL
3. SFKKFDEKENVSNCIQLKTSVIKGIKNQLLEQFPGIEPWLNQIMPKKDPVKIVRCHEHIEILTVNGELLFFRQREGPFYPTLRLLHKYPFILPHQQVDKGAIKFVLSGANIMCPGLTSPGAKLYPAAVDTIVAIMAEGKQHALCVGVMKMSAEDIEKVNKGIGIENIHYLNDGLWHMKTYK
4. MGGRSNSATTAAQQNAVLRIVVVGGGGVGKSALTIQFIQRYFVQDYDPTIEDSYTKQCFVDEDLCKLEILDTAGQEEFSTMREQYLRTGSGFLIVFAVTDRNSFEEVKKLHELICRIKDRDDFPIILVGNKADLENERHVARHEAEELAHRLSIPYLECSAKIRKNVDEAFFDIVRLVRKYQHDERMPIHPHDDRKLESPIKLKKKKNCRIQ

Key:
1: soluble; 2: soluble; 3: soluble; 4: soluble
